ASSAY_TARGET: AURKB (human) (UniProt Q96GD4)
Sequence (Q96GD4 whole entry, looked up): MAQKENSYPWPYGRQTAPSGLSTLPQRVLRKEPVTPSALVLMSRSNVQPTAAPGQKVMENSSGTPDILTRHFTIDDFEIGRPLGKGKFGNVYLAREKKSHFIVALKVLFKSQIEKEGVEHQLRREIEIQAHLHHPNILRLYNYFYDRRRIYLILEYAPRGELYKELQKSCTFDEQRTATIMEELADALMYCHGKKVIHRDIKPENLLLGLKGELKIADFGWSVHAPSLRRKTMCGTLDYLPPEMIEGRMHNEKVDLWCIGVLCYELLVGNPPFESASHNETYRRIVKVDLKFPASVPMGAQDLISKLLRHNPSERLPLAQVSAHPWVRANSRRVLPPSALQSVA
ASSAY_PROCEDURE: split-luciferase competition binding
EXPERIMENTAL_SETUP: compound 10.0 µM
Parameter inhibition: see the listing below.

- SMILES_STRING: "Cn1cc(C2=C(c3ccc(Cl)cc3Cl)C(=O)NC2=O)c2ccccc21"
  ASSAY_TARGET: "AURKB (human) (UniProt Q96GD4)"
  inhibition [%]: 0
- SMILES_STRING: "N#C/C(=C\\c1ccc(O)c(O)c1)C(=O)NCc1ccccc1"
  ASSAY_TARGET: "AURKB (human) (UniProt Q96GD4)"
  inhibition [%]: 0
- SMILES_STRING: "COc1cc2ncnc(Nc3ccc(Cl)cc3F)c2cc1OC"
  ASSAY_TARGET: "AURKB (human) (UniProt Q96GD4)"
  inhibition [%]: 9
- SMILES_STRING: "O=C1NC(=O)c2c1c1c3ccccc3[nH]c1c1[nH]c3ccccc3c21"
  ASSAY_TARGET: "AURKB (human) (UniProt Q96GD4)"
  inhibition [%]: 50
- SMILES_STRING: "Cc1ccc(NC(=O)c2cccc(N(C)C)c2)cc1NC(=O)c1ccc(O)cc1"
  ASSAY_TARGET: "AURKB (human) (UniProt Q96GD4)"
  inhibition [%]: 0
- SMILES_STRING: "CC(C)[C@H](CO)Nc1nc(Nc2cccc(Cl)c2)c2ncn(C(C)C)c2n1"
  ASSAY_TARGET: "AURKB (human) (UniProt Q96GD4)"
  inhibition [%]: 0
- SMILES_STRING: "O=C1Nc2ccc(I)cc2/C1=C/c1cc(Br)c(O)c(Br)c1"
  ASSAY_TARGET: "AURKB (human) (UniProt Q96GD4)"
  inhibition [%]: 26
- SMILES_STRING: "C=CC(=O)c1ccc2ccccc2c1"
  ASSAY_TARGET: "AURKB (human) (UniProt Q96GD4)"
  inhibition [%]: 0
- SMILES_STRING: "Cc1[nH]c(/C=C2\\C(=O)Nc3ccc(S(=O)(=O)Cc4c(Cl)cccc4Cl)cc32)c(C)c1C(=O)N1CCC[C@@H]1CN1CCCC1"
  ASSAY_TARGET: "AURKB (human) (UniProt Q96GD4)"
  inhibition [%]: 33
- SMILES_STRING: "CC(C)[C@H](CO)Nc1nc(Nc2ccc(C(=O)O)c(Cl)c2)c2ncn(C(C)C)c2n1"
  ASSAY_TARGET: "AURKB (human) (UniProt Q96GD4)"
  inhibition [%]: 15
